Hello, the source for this data is ChEMBL document CHEMBL1143875, in case you need it.

protocol: Cmax in ob/ob C57BL/6J-leptin deficient obese mouse at 3 mg/kg administered as multiple dose after 11 days
Type: ADME, organism-based
Parameters: dose 3 mg/kg
conditions used: in vivo
endpoint: Cmax (ng/mL)
Field format: number, assumed ng/mL, no unit text.

Reported Cmax for `Cc1cc(SCc2nc(-c3ccc(Cl)c(Cl)c3)ns2)ccc1OC(C)(C)C(=O)O` : what is it?
26300

====

protocol: Half life in Sprague-Dawley rat at 0.1 mg/kg administered as multiple dose after 8 days
Type: ADME, organism-based
Design: dose 0.1 mg/kg
conditions used: in vivo
endpoint: half-life

// lookup half-life for `Cc1cc(SCc2nc(-c3ccc(Cl)c(Cl)c3)ns2)ccc1OC(C)(C)C(=O)O`
5.5 h
